All figures here come from PubChem BioAssay (NCI).

# Tested on: NCI-H460 lung
# experiment: NCI-60 one-dose screen, 48 h (100 = growth as untreated, 0 = no growth, -100 = all killed)
# condition: 10 µM unless noted
About 83,000 compounds went through this panel and 20% of them were active in at least one assay; those are over-represented in the sample as a whole.
List of growth values.
Kindly answer with a numeric value in %, unit omitted.

O=C1Nc2ccc(Cl)cc2C12Nc1cc(Cl)ccc1S2 (configuration not stated) | 62.7
CCNc1nc(S(=O)(=O)CC)nc2ccccc12 | 101
CCC1=CCC[C@@]2(C)CCC[C@@]3(C)CCCC(C)(C)[C@]1([O-])[O+]32 | 109
N=C(N)c1ccc(-c2cc(Cl)cc(Cl)c2)cn1 | 96.9
N=C(N)c1ccc(-c2ccc(-c3cncc4ccccc34)s2)cc1F | -72.4
Cc1ccc2nc(Cl)cc(=O)n2c1 | 113

Look up growth of C=C(C)[C@@H]1C[C@@H]2Cc3cc(Cl)ccc3N1O2 and report it.
102

Look up growth of O=C(NS(=O)(=O)c1ccc2ccccc2c1)n1cc(-c2ccncc2)c(-c2ccc(Cl)c(O)c2)n1 and report it.
89.7

Look up growth of O=S(=O)(CC(O)(c1ccccc1)c1ccccc1)CC(O)(c1ccccc1)c1ccccc1 and report it.
77.6

Look up growth of NC(=O)c1c(NC(=S)Nc2ccc(OC(F)(F)F)cc2)sc2c1CCC1(C2)OCCO1 and report it.
99.1

Look up growth of C=C1CCC2C3(C)COC(c4ccccc4)OC3CCC2(C)C1/C=C/C1=CCOC1=O (configuration not stated) and report it.
93.6

Look up growth of CC12CCC3C4(C)COC(c5ccco5)OC4CCC3(C)C1CC(C1=CCOC1=O)O2 (configuration not stated) and report it.
102

Look up growth of O=C1/C(=C/c2ccccc2)CN(C(=O)CCN2CCC(=NO)CC2)C/C1=C\c1ccccc1 and report it.
-32.2

Look up growth of O=C1CS/C(=N\Nc2cc(=O)[nH]c3ccccc23)N1c1ccccc1 and report it.
100

Look up growth of CCCCCCCCCCCCNC(=O)[C@H]1CSC(c2ccsc2)N1 (some centres not stated) and report it.
-80.1

Look up growth of CCOC(=O)C1C(=O)C=C(c2ccc(OC)cc2)CC1c1sc(N(C)Cc2ccccc2)nc1Cl (configuration not stated) and report it.
82.8

Look up growth of COc1cc(-c2nn(-c3cccc(NC(=O)c4cccc(C(F)(F)F)c4)c3)cc2-c2ccncc2)ccc1Cl and report it.
4.83

Look up growth of CCOC(=O)C1=C(C)NC(C)=C(C(=O)OCC)C1(C)C and report it.
111

Look up growth of COc1ccc(Nc2ncccc2C(=O)NCc2cn(Cc3cccc(Oc4ccccc4)c3)nn2)c(OC)c1 and report it.
7.15

Look up growth of COc1ccccc1CNCCCN1C(=O)c2ccc3c4c(ccc(c24)C1=O)C(=O)N(CCCNCCCCNCCCN)C3=O and report it.
-30.2

Look up growth of c1ccc(-c2nc(N3CCNCC3)c3nc(-c4ccccc4)oc3n2)cc1 and report it.
-73.7

Look up growth of COc1ccc2c(c1)C(c1cc(OC)c3c(c1)OCO3)C1=C(COC1=O)N2 (configuration not stated) and report it.
6.63

###

# System: UACC-257 melanoma
# experiment: NCI-60 one-dose screen, 48 h (100 = growth as untreated, 0 = no growth, -100 = all killed)
# condition: 10 µM unless noted
About 83,000 compounds went through this panel and 20% of them were active in at least one assay; those are over-represented in the sample as a whole.
Labelling: growth reported below 70% becomes yes (1); at or above becomes no (0).

Observe how each entry below is paired with its result.
CCCC(=O)Oc1ccc(/C(=C(\C)c2ccccc2)c2ccc(OCCN(CC)CC)cc2)cc1 | yes (1)
COc1cccc(/C=C/C(=O)Nc2cc(OC)c3c(c2)OCO3)c1 | no (0)
CCN1CCN(CC(=O)N2c3cccc4cccc(c34)N(C(=O)CN3CCN(CC)CC3)C2c2cn(-c3ccccc3)nc2-c2cccc([N+](=O)[O-])c2)CC1 | yes (1)
COc1cc(-c2nn(-c3cccc(NC(=O)c4ccc(Cl)c(C(F)(F)F)c4)c3)cc2-c2ccncc2)ccc1Cl | yes (1)
N#Cc1c(Nc2ccccc2)nc2n(c1=O)-c1ccccc1Sc1ccccc1-2 | no (0)
O=C(Nc1ccc2c(c1)OCO2)C(=O)c1c[nH]c2cc(F)ccc12 | yes (1)
Fc1ccccc1-c1nc(-c2nc3cc(Cl)c(Cl)cc3[nH]2)c2ccccn12 | no (0)
COc1ccc2c(c1)OC1=C(C(=O)OC1)C2c1cc(OC)c2c(c1)OCO2 (stereo not given) | yes (1)
O=C(CCl)N(C1CCCCC1)C1CCCCC1 | no (0)
COP(=O)(OC)/C(=N\NS(=O)(=O)c1ccc(C)cc1)c1ccccc1 | no (0)

Strictly below 70% in growth? N[C@@H]1CCN(C(=O)c2cc3cc(Cl)c(F)c(F)c3[nH]2)C1
no (0)

Strictly below 70% in growth? O=C(/C=C/c1c[nH]c2ccccc12)c1ccc(O)c(CN2CCN(c3ccc(F)cc3)CC2)c1
no (0)

Strictly below 70% in growth? Nc1nc(Nc2cc(Cl)cc(Cl)c2)nn1S(=O)(=O)c1ccc2ccccc2c1
no (0)

Strictly below 70% in growth? COc1ccc(/C=C2\CN(Cc3cn(CCNc4ccnc5cc(Cl)ccc45)nn3)C/C(=C\c3ccc(OC)c(OC)c3)C2=O)cc1OC
yes (1)

Strictly below 70% in growth? COc1cc(-c2nn(-c3cccc(NC(=O)Nc4ccc(Cl)c(C(F)(F)F)c4)c3)cc2-c2ccncc2)ccc1Cl
yes (1)

Strictly below 70% in growth? COc1ccc(C2=C(c3cc(OC)c(OC)c(OC)c3)C(=O)CC2)cc1
yes (1)

Strictly below 70% in growth? COc1cc(-c2nn(-c3cccc(NC(=O)c4cccc(C(F)(F)F)c4)c3)cc2-c2ccncc2)ccc1Cl
yes (1)

Strictly below 70% in growth? COC(OC)c1ccccc1
no (0)

Strictly below 70% in growth? Brc1ccc(-c2[nH]ncc2-c2c[nH]c3ccccc23)cc1
no (0)
